- ASSAY_TARGET: Bcl-XL (Homo sapiens, UniProt Q07817)
- Sequence (Q07817 whole entry, species assumed): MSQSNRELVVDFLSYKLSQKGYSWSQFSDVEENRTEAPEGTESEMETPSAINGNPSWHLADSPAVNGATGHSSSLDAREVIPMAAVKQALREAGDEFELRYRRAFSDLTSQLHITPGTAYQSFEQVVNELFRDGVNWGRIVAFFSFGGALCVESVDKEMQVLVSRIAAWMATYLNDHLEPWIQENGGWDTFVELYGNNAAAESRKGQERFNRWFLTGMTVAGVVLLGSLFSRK
- ASSAY_PROTOCOL: Inhibition of Bcl-XL (disruption of Bcl-XL/Bim interaction)
- Type: binding
- PROTOCOL_CONDITIONS: compound at 25 μM
OBSERVED_PROPERTY: inhibition at 25 µM (%)
Dear colleague, please return just the value in %, with no unit written.

NS(=O)(=O)c1ccc(CN(CCSc2ccccc2)Cc2ccc(S(=O)(=O)NC(=O)CCCN3C(=O)C(c4ccc(F)cc4F)=C(c4ccc(F)cc4F)C3=O)cc2)cc1; 3.8

Just so you know, measured inhibition at 25 µM for CC1(C)CCN(c2ccc(C(=O)NS(=O)(=O)c3ccc4ccc(S(=O)(=O)NCCSc5ccccc5)cc4c3)cc2)CC1 came out at 15.5

Please fill in: inhibition at 25 µM reported for COc1cccc(CN(CCSc2ccccc2)Cc2ccc(S(=O)(=O)NC(=O)Cn3c4ccccc4c4ccccc43)cc2)c1 = 3
